Study Target: recombinant full-length PfCSP (Plasmodium falciparum circumsporozoite protein, strain NF54) (Plasmodium falciparum NF54, UniProt P19597)
Sequence (P19597 20-375): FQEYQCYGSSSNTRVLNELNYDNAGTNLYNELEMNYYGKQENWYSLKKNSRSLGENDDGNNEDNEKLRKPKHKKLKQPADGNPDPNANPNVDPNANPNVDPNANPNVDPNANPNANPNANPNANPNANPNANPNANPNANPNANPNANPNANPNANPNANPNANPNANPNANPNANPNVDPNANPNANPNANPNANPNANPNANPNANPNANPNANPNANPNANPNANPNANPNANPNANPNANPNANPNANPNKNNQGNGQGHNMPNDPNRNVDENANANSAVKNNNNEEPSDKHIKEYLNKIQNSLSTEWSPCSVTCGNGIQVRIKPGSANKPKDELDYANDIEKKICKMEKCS

>  <Binder>
CL-511296 (antibody, V domains shown) VH: QVQLVASGGGVVQPGRSQRLSCAASGFTFSNYGMHWVRQSPGRGLEWVAIIWYDGSNKFYADSVKGRFTISRDNSRNTLFLQMNSLRAEDTAIYYCAKSEERTSDNYFKYGMDVWGQGTTVIVST VL: DIQMTQSPSTLSASVGDRVTITCRASQSISSWLAWYQQKPGKAPKLLIYKASNLESGVPSRFSGSGSGTEFTLSISNLQPDDFATYFCQQYTSYWTFGQGTKVEIK

>  <binding result>
binds

$$$$
>  <Binder>
CL-531286 (antibody, V domains shown) VH: QVQLVESGGGLVQPGRSLRLSCAASGFTFSSSGMHWVRQAPGKGLEWVAVIWYDGSNKFYADSVKGRFTISRDNSKNTLYLQMNSLRAEDTAVYYCARSGYDILTGYFNFFDPWGQGTLVTVSS VL: EIVLTQSPGTLSLSPGERATLSCRASQSVSSSHLAWYQQKPGQAPRLLIYGASSRATGIPDRFSGSGSGTDFTLTISRLEPEDFAVYYCHQYVSSFTFGPGTKVDFK

>  <binding result>
binds

$$$$
>  <Binder>
CL-531271 (antibody, V domains shown) VH: QVQLVESGGGEVQPGRSLRLSCAASGFTFSNYGMHWVRQAPGKGLEWVALIWYDGNNKFYADSVNGRFTISRDNSNNTLYLQMNSLRAEDTGVYYCARSFYYVSGNFFDYWGQGTLVTVSS VL: DIPMTQSPSSVSASVGDRVTITCRASQGISTWLAWYQQKPGKAPKFLIYAASSLQSGVPSRFSGSGSGTDFTLTIYSLQPEDFATYYCQQGNSFPWTFGQGTKVEIK

>  <binding result>
binds

$$$$
